Hello, the source for this data is paper PMC9352680, in case you need it.

# TARGET OR SYSTEM: T1, PUF4 RNA-binding domain (Saccharomyces cerevisiae, UniProt P25339 537-888)
# T1 sequence: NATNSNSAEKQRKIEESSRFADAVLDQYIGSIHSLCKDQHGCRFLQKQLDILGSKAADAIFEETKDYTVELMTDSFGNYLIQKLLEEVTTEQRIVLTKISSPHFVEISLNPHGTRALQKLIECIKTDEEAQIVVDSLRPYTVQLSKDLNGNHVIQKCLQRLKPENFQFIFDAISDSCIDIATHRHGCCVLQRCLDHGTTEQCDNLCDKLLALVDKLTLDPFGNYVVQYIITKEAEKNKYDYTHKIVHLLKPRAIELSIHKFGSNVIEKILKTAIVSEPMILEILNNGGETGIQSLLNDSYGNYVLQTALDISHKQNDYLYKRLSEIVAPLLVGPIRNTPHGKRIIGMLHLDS
# PROTOCOL TEXT: Mg; RNA-MaP; 20 mM Na-HEPES pH 7.4, 30 mM KOAc, 0.75 mM MgCl2, 0.1% Tween-20, 5% glycerol, 0.1 mg/mL BSA, 2 mM DTT; 25 C; 0.0125-409.6 nM protein
# RUN PARAMETERS: tags: N-His6-TEV cleaved; C-SNAP kept, Cy3B-labelled; label: tethered on chip by stalled RNA polymerase
Listed binders paired with reported Kd
Kindly answer with a numeric value in nM, unit omitted.

BINDER: UCUCUUUGUAUAUAUUUCUCUU (ssRNA) [Ic_S1_P5E.1_K5.1_C5.1_H5.1_A5.1_[T6A]_[A7T]_F5.1_[T8A]_[A10T]_T5.1]
MEASUREMENT UNIT: nM
Kd: 7.35

Query :: Indicate its recorded Kd; the binder in question is UCUCUUUUUAUAUUAUUAUUUCUCUU (ssRNA) [Id_ii_S1_P5E.3_K5.2_C5.2_[C-2T]_H5.2_A5.1_F5.1_T5.2_[A12T]]
Result :: 181

Query :: Indicate its recorded Kd; the binder in question is Ic_S2_P3E.1_K3.1_C3.1_H3.1_A3.1_[A6C]_F3.1_[T7G]_[A8T]_T3.1 (ssRNA) RNA: UUUGAUUAAUAUGAUAUCGUUCUUUCUUGUAUCGUUUCUUUCUCGAUAUCAUAUUAAUCUUU
Result :: 114

Query :: Indicate its recorded Kd; the binder in question is UCUCUUUGUAAACGCCUCUCUU (ssRNA) [Ic_S1_P5E.1_K5.1_C5.1_H5.1_A5.1_[T5A]_[T6A]_[A7C]_F5.1_[T8G]_[T9C]_[A10C]_T5.1]
Result :: 1060

Query :: Indicate its recorded Kd; the binder in question is ACAAACGCUAUAUAUUAAUACAAAC (ssRNA) [Id_ii_S3_P4E.3_K4.2_C4.2_[C-2G]_[T-1C]_H4.2_A4.1_F4.1_T4.2_[G10A]]
Result :: 19.9

Query :: Indicate its recorded Kd; the binder in question is UCUCUUUGUUUUAUUCUCUCUU (ssRNA) [Ib_S1_P5E.1_K5.1_C5.1_H5.1_[A4T]_A5.1_F5.1_[A10C]_T5.1]
Result :: 899

Query :: Indicate its recorded Kd; the binder in question is UCUCUUCCUAUAUAUAAGUCUCUU (ssRNA) [Id_ii_S1_P3E.3_K3.2_C3.2_[T-1C]_H3.2_A3.1_F3.1_T3.2_[T9A]_[A10G]]
Result :: 1540
